Test: HPLC-based lipophilicity (Log D7.4)
Settings: pH 7.4
Assay endpoint: chromatographic logD

The following compounds each have a reported value; give each one's chromatographic logD.
1. O=C(O)c1cc(-c2ccc([C@@H]3CCN[C@@H]4C[C@@H]43)cc2)c2ccc(-c3ccc(C(F)(F)F)cc3)cc2c1 (racemic) [Compound 111]
2. O=C(O)c1cc(-c2ccc(C3=CC4CCC(C3)N4)cc2)c2ccc(-c3ccc(C(F)(F)F)cc3)cc2c1 (stereo not drawn) [Compound 128]
3. O=C(O)c1cc(-c2ccc([C@@H]3C[C@H]4CN[C@@H]3C4)cc2)c2ccc(-c3ccc(C(F)(F)F)cc3)cc2c1 [Compound 116]

1. 1.75
2. 2.33
3. 2.11

The following compounds each have a reported value; give each one's chromatographic logD.
1. O=C(O)c1cc(-c2ccc([C@]3(O)[C@@H]4CC[C@H]3CNC4)cc2)c2ccc(-c3ccc(C(F)(F)F)cc3)cc2c1 [Compound 131]
2. CC1CNCCC1c1ccc(-c2cc(C(=O)O)cc3cc(-c4ccc(C(F)(F)F)cc4)ccc23)cc1 (mixture of isomers) [Compound 106]
3. O=C(O)c1cc(-c2ccc([C@]3(O)C[C@H]4CC[C@@H](C3)N4)cc2)c2ccc(-c3ccc(C(F)(F)F)cc3)cc2c1 [Compound 127]

1.2
2.79
1.16

* * *

Biological target: hP2Y14R (Homo sapiens)
Construct: expressed in transfected cells; host or cells: CHO cells
Sequence (Q15391 whole entry): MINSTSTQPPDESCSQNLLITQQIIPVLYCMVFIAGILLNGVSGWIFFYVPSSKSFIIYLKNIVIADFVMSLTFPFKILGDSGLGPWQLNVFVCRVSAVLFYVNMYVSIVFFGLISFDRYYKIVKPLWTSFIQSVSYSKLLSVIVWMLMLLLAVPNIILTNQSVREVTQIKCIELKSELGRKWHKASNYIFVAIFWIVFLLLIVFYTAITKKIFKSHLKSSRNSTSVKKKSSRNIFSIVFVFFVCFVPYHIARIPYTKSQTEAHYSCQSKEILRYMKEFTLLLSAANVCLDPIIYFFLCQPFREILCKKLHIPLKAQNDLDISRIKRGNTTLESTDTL
Assay: Inhibition of fluorescent antagonist binding in whole hP2Y14R-expressing CHO cells (flow cytometry)
Assay endpoint: IC50 (nM)
Numbers only, in nM.

• CN1C[C@H]2CC[C@@H](C1)[C@]2(O)c1ccc(-c2cc(C(=O)O)cc3cc(-c4ccc(C(F)(F)F)cc4)ccc23)cc1 = 44.6
• O=C(O)c1cc(-c2ccc([C@@]34CCNC[C@@H]3C4)cc2)c2ccc(-c3ccc(C(F)(F)F)cc3)cc2c1 (racemic) = 45.5
• O=C(O)c1cc(-c2ccc([C@]3(O)[C@@H]4CC[C@H]3CNC4)cc2)c2ccc(-c3ccc(C(F)(F)F)cc3)cc2c1 = 21.3
• O=C(O)c1cc(-c2ccc(C3C4CCC3CNC4)cc2)c2ccc(-c3ccc(C(F)(F)F)cc3)cc2c1 (stereo not shown) = 696
• O=C(O)c1cc(-c2ccc([C@@H]3CCN[C@H]4C[C@H]43)cc2)c2ccc(-c3ccc(C(F)(F)F)cc3)cc2c1 (racemic) = 42.4
• O=C(O)c1cc(-c2ccc([C@H]3C[C@H]4C[C@@H]3CN4)cc2)c2ccc(-c3ccc(C(F)(F)F)cc3)cc2c1 (racemic) = 5.9

Now examine the next entry.
May I ask what IC50 has been recorded for O=C(O)c1cc(-c2ccc([C@@H]3CCN[C@@H]4C[C@@H]43)cc2)c2ccc(-c3ccc(C(F)(F)F)cc3)cc2c1 (racemic) ?
61.8

* * *

Can you tell me pIC50 for the items I'm about to list?
Target: mP2Y14R (Mus musculus, UniProt Q9ESG6)
Sequence (Q9ESG6 1-338): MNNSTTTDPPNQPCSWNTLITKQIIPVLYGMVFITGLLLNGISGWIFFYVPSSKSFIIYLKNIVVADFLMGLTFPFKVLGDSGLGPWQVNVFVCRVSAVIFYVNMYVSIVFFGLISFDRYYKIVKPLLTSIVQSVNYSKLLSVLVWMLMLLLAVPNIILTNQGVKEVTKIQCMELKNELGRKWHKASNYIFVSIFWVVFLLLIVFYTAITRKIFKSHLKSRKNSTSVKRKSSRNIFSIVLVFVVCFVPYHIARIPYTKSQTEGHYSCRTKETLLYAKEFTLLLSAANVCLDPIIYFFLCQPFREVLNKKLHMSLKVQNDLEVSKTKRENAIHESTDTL
Assay: cell-based
Details: read-out: mP2Y14R, IC50; Table 2; tracer 2 (20 nM, 45 min), HEK293 cells
Numbers only, as −log10 of the molar value.

The following molecules each have a reported value; give each one's pIC50.
1. O=C(O)c1cc(-c2ccc(-c3cc(CO)on3)cc2)cc(-n2cc(-c3ccc(C(F)(F)F)cc3)nn2)c1 [Compound 29]
2. NCC#Cc1ccc(-c2cc(C(=O)O)cc(-n3cc(-c4ccc(C(F)(F)F)cc4)nn3)c2)cc1 [Compound 19]
3. O=C(O)c1cc(-c2ccc(-c3cc(CO)on3)cc2)c2ccc(-c3ccc(C(F)(F)F)cc3)cc2c1 [Compound 32]

[6.74, 6.43, 7.73]
